Test System: T1, CD123 (Homo sapiens (Human), UniProt P26951 19-305, limits assumed)
T1 construct: The CD123 construct used in the ELISA is not described; also called CD123-Signal
T1 sequence: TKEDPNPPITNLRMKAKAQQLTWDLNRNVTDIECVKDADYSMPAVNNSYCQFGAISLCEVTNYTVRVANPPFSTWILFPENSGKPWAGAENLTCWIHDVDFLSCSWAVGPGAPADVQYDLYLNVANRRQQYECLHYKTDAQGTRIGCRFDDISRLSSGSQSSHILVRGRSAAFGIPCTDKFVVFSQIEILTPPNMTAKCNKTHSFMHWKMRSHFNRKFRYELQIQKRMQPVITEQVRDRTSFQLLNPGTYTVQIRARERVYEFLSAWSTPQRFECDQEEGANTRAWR
Experiment Notes: ELISA
Design: unit not given here
Quantity Kind: ELISA_avg

In [3]: df
Out[3]:
                                     binder  meas_value
0  D domain of SEQ ID NO: 457 (designed binder) MGSWVEFYIRLDAIYVRLMALGGSEAELAAFEKEIAAFESELQAYKGKGNPEVEKLRSYAANIRQELQAYRHN        16.1
1  D domain of SEQ ID NO: 647 (designed binder) MGSWVEFSNRLDAIWERLQALGGSEAELAYFEWEIAEFEWELQSYKGKGNPEVEALNAEADAIEWELEAYRHN         5.1
2  D domain of SEQ ID NO: 552 (designed binder) MGSWLYFKEYLADIKSDLEALGGSEAELAWFEYEIADFEEQLQYYKGKGNPEVEALRKEAAAIRDELQAYRHN         3.7
3  D domain of SEQ ID NO: 621 (designed binder) MGSWMEFEDRLMAIVDRLWALGGSEAELADFEWNIAMFEEELQWYKGKGNPEVEALGDEAEAIEWELYAYRHN         6.8
4  D domain of SEQ ID NO: 516 (designed binder) MGSWSDFKDDLAEIKMILEALGGSEAELAYFENDIAWFEDDLQEYKGKGNPEVEALRKEAAAIRDELQAYRHN         4.7
5  D domain of SEQ ID NO: 572 (designed binder) MGSWSEFDSRLDAIAYRLFALGGSEAELAQFEWIIADFEEDLQMYKGKGNPEVEALFSEAYAIEIELNAYRHN         4.3
6  D domain of SEQ ID NO: 479 (designed binder) MGSWTFFKEDLAGIKWELEALGGSEAELAWFEDEIALFEEELQEYKGKGNPEVEALRKEAAAIRDELQAYRHN           7
7  D domain of SEQ ID NO: 603 (designed binder) MGSWSEFVDRLDAIFDRLWALGGSEAELAWFEDTIAHFEWNLQEYKGKGNPEVEALNGEADAITDELHAYRHN         5.3
8  D domain of SEQ ID NO: 653 (designed binder) MGSWNEFVIRLFAIDDRLYALGGSEAELAWFEDEIATFEYELQRYKGKGNPEVEALEYEAEAIVSELFAYRHN         3.5
9  D domain of SEQ ID NO: 611 (designed binder) MGSWYEFVSRLDAIEYRLWALGGSEAELAWFEWDIADFEQGLQFYKGKGNPEVEALAQEANAIGSELTAYRHN         3.2
